targetOrSystem: human galectin-3C (Gal-3C, C-terminal CRD of galectin-3) (Homo sapiens, UniProt P17931)
Construct: only the C-terminal domain was used (Gal-3C); 6xHis tag with TEV protease site (N, cleaved yes); made in house; host or cells: BL21 Escherichia coli (pET-15b)
Sequence (P17931 118-248 limits assumed): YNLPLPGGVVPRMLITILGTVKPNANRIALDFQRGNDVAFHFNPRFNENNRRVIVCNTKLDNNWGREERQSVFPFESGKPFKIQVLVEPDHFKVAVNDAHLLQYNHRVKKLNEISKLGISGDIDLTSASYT
assay: Competitive fluorescence polarization assay, Gal-3C
Assay type: binding
conditionInfo: competitive fluorescence polarization; mean ± SD; read-out: Kd Gal-3C
Description: Our investigation of the structure–activity relationship of N-aryl-N-lactosylamides started with an initial screening of substituted acetanilides (Table ). These compounds can be readily synthesized from a wide range of commercially available substituted anilines. Affinity was evaluated using a fluorescence polarization assay, which enables reliable determination of dissociation constants (K d) between small molecules and galectins. […]
pKd: −log10 of the molar value.
outcomeMeasure: pKd

Some compounds with recorded pKd:
CC(=O)c1c[nH]c2cc(C(=O)O)cc(N(C(C)=O)[C@@H]3O[C@H](CO)[C@@H](S[C@@H]4O[C@H](CO)[C@H](O)[C@H](n5cc(-c6cccc(F)c6)nn5)[C@H]4O)[C@H](O)[C@H]3O)c12; 7.51
CC(=O)N(c1ccc2c(c1)OCO2)[C@@H]1O[C@H](CO)[C@@H](O[C@@H]2O[C@H](CO)[C@H](O)[C@H](O)[C@H]2O)[C@H](O)[C@H]1O; 3.96
CC(=O)N(c1ccc(F)cc1)[C@@H]1O[C@H](CO)[C@@H](O[C@@H]2O[C@H](CO)[C@H](O)[C@H](O)[C@H]2O)[C@H](O)[C@H]1O; 4.06

[1] COc1ccc(N(C(C)=O)[C@@H]2O[C@H](CO)[C@@H](O[C@@H]3O[C@H](CO)[C@H](O)[C@H](O)[C@H]3O)[C@H](O)[C@H]2O)cc1OC
[2] CC(=O)N(c1cc(Cl)cc(C(=O)O)c1)[C@@H]1O[C@H](CO)[C@@H](O[C@@H]2O[C@H](CO)[C@H](O)[C@H](O)[C@H]2O)[C@H](O)[C@H]1O
I'm curious whether 1 or 2 has the smaller pKd number. Which is it? Selection: enter the item's label.
1
(1: 4.05, 2: 4.30)

---

assay: Microsomal stability assay, mouse liver microsomes
Type: in vitro ADME
conditionInfo: pooled liver microsomes, pH 7.4, mouse liver microsomes 0.5 mg/mL, NADPH
Measured microsomal CLint at 10 μM, listed per entry for reference.

CC(=O)N(c1cc(C(=O)O)cc2[nH]ccc12)[C@@H]1O[C@H](CO)[C@@H](O[C@@H]2O[C@H](CO)[C@H](O)[C@H](O)[C@H]2O)[C@H](O)[C@H]1O [Compound 3af]; < 2 µL/min/mg
CC(=O)N(c1cc(O)cc(C(=O)O)c1)[C@@H]1O[C@H](CO)[C@@H](O[C@@H]2O[C@H](CO)[C@H](O)[C@H](O)[C@H]2O)[C@H](O)[C@H]1O [Compound 3ad]; < 2 µL/min/mg
CC(=O)N(c1cc(C(=O)O)cc2[nH]ccc12)[C@@H]1O[C@H](CO)[C@@H](S[C@@H]2O[C@H](CO)[C@H](O)[C@H](n3cc(-c4cccc(F)c4)nn3)[C@H]2O)[C@H](O)[C@H]1O [Compound 11]; < 2 µL/min/mg
CC(=O)c1c[nH]c2cc(C(=O)O)cc(N(C(C)=O)[C@@H]3O[C@H](CO)[C@@H](S[C@@H]4O[C@H](CO)[C@H](O)[C@H](n5cc(-c6cccc(F)c6)nn5)[C@H]4O)[C@H](O)[C@H]3O)c12 [Compound 10]; < 2 µL/min/mg

GET /values?readout=microsomal CLint at 10 μM&item= OC[C@H]1O[C@@H](S[C@@H]2O[C@H](CO)[C@H](O)[C@H](n3cc(-c4cccc(F)c4)nn3)[C@H]2O)[C@H](O)[C@@H](n2cc(-c3cccc(F)c3)nn2)[C@H]1O [GB0139, reference compound]
6 µL/min/mg

---

assay: Plasma stability assay, human plasma
Type: in vitro ADME
conditionInfo: pooled plasma, 37 °C
outcomeMeasure: remaining at 2 h, 10 μM (%)

CC(=O)N(c1cc(O)cc(C(=O)O)c1)[C@@H]1O[C@H](CO)[C@@H](O[C@@H]2O[C@H](CO)[C@H](O)[C@H](O)[C@H]2O)[C@H](O)[C@H]1O; 99
CC(=O)N(c1cc(C(=O)O)cc2[nH]ccc12)[C@@H]1O[C@H](CO)[C@@H](S[C@@H]2O[C@H](CO)[C@H](O)[C@H](n3cc(-c4cccc(F)c4)nn3)[C@H]2O)[C@H](O)[C@H]1O; 110
CC(=O)c1c[nH]c2cc(C(=O)O)cc(N(C(C)=O)[C@@H]3O[C@H](CO)[C@@H](S[C@@H]4O[C@H](CO)[C@H](O)[C@H](n5cc(-c6cccc(F)c6)nn5)[C@H]4O)[C@H](O)[C@H]3O)c12; 92
OC[C@H]1O[C@@H](S[C@@H]2O[C@H](CO)[C@H](O)[C@H](n3cc(-c4cccc(F)c4)nn3)[C@H]2O)[C@H](O)[C@@H](n2cc(-c3cccc(F)c3)nn2)[C@H]1O [GB0139, reference compound]; 110
CC(=O)N(c1cc(C(=O)O)cc2[nH]ccc12)[C@@H]1O[C@H](CO)[C@@H](O[C@@H]2O[C@H](CO)[C@H](O)[C@H](O)[C@H]2O)[C@H](O)[C@H]1O; 100

---

The reader will find reported fraction unbound at 4 h, 10 μM values listed item by item below.
assay: Plasma protein binding, summary across species
Format: in vitro ADME
conditionInfo: summary across human, mouse and rat plasma

CC(=O)N(c1cc(C(=O)O)cc2[nH]ccc12)[C@@H]1O[C@H](CO)[C@@H](S[C@@H]2O[C@H](CO)[C@H](O)[C@H](n3cc(-c4cccc(F)c4)nn3)[C@H]2O)[C@H](O)[C@H]1O [Compound 11]; 0.1 to 0.78
CC(=O)c1c[nH]c2cc(C(=O)O)cc(N(C(C)=O)[C@@H]3O[C@H](CO)[C@@H](S[C@@H]4O[C@H](CO)[C@H](O)[C@H](n5cc(-c6cccc(F)c6)nn5)[C@H]4O)[C@H](O)[C@H]3O)c12 [Compound 10]; 0.1 to 0.78
CC(=O)N(c1cc(C(=O)O)cc2[nH]ccc12)[C@@H]1O[C@H](CO)[C@@H](O[C@@H]2O[C@H](CO)[C@H](O)[C@H](O)[C@H]2O)[C@H](O)[C@H]1O [Compound 3af]; > 0.9

Note: attention shifts to another entry.
Look at this compound and give its reported fraction unbound at 4 h, 10 μM. CC(=O)N(c1cc(O)cc(C(=O)O)c1)[C@@H]1O[C@H](CO)[C@@H](O[C@@H]2O[C@H](CO)[C@H](O)[C@H](O)[C@H]2O)[C@H](O)[C@H]1O [Compound 3ad]
> 0.9

---

targetOrSystem: human galectin-1 (Gal-1, full length) (Homo sapiens, UniProt P09382)
Construct: Gal-1 is a prototype galectin consisting of a single CRD and was used in full length; 6xHis tag with TEV protease site (N, cleaved yes); made in house; host or cells: BL21 Escherichia coli (pET-15b)
Sequence (P09382 2-135): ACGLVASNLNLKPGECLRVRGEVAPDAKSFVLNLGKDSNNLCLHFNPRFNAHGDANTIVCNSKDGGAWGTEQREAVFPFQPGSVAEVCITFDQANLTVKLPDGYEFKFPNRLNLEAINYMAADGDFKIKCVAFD
assay: Competitive fluorescence polarization assay, Gal-1
Type: binding
conditionInfo: four-parameter logistic model; mean ± SD; read-out: IC50 Gal-1
outcomeMeasure: IC50 (µM)

Some compounds with recorded IC50:
CC(=O)N(c1cccc(-c2ccc(C)o2)c1)[C@@H]1O[C@H](CO)[C@@H](O[C@@H]2O[C@H](CO)[C@H](O)[C@H](O)[C@H]2O)[C@H](O)[C@H]1O [Compound 3z]; 860
CC(=O)N(c1ccccc1)[C@@H]1O[C@H](CO)[C@@H](O[C@@H]2O[C@H](CO)[C@H](O)[C@H](O)[C@H]2O)[C@H](O)[C@H]1O [Compound 3a]; 910

[a] COC(=O)c1cc(N(C(C)=O)[C@@H]2O[C@H](CO)[C@@H](O[C@@H]3O[C@H](CO)[C@H](O)[C@H](O)[C@H]3O)[C@H](O)[C@H]2O)c2cc[nH]c2c1 [Compound 3ae]
[b] O=C(O)c1cccc(N(C(=O)Cc2ccccc2)[C@@H]2O[C@H](CO)[C@@H](O[C@@H]3O[C@H](CO)[C@H](O)[C@H](O)[C@H]3O)[C@H](O)[C@H]2O)c1 [Compound 3u]
[c] COC(=O)c1cccc(N(C(C)=O)[C@@H]2O[C@H](CO)[C@@H](O[C@@H]3O[C@H](CO)[C@H](O)[C@H](O)[C@H]3O)[C@H](O)[C@H]2O)c1 [Compound 3v]
Descending sort on IC50 required. # output: labels, in the requested order
b, a, c
(b: 2100 µM, a: 1000 µM, c: 660 µM)

---

targetOrSystem: human galectin-1 (Gal-1, full length) (Homo sapiens)
Construct: Gal-1 is a prototype galectin consisting of a single CRD and was used in full length; 6xHis tag with TEV protease site (N, cleaved yes); made in house; host or cells: BL21 Escherichia coli (pET-15b)
assay: Competitive fluorescence polarization assay, Gal-1
Assay type: binding
conditionInfo: competitive fluorescence polarization; mean ± SD; read-out: Kd Gal-1
pKd: −log10 of the molar value.
outcomeMeasure: pKd

COc1ccc(N(C(C)=O)[C@@H]2O[C@H](CO)[C@@H](O[C@@H]3O[C@H](CO)[C@H](O)[C@H](O)[C@H]3O)[C@H](O)[C@H]2O)cc1; 3.18

[P] CC(=O)N(c1cccc(-c2nnn[nH]2)c1)[C@@H]1O[C@H](CO)[C@@H](O[C@@H]2O[C@H](CO)[C@H](O)[C@H](O)[C@H]2O)[C@H](O)[C@H]1O
[Q] CC(=O)N(c1ccc(Cl)c(Cl)c1)[C@@H]1O[C@H](CO)[C@@H](O[C@@H]2O[C@H](CO)[C@H](O)[C@H](O)[C@H]2O)[C@H](O)[C@H]1O
Which of the two items, P and Q , has the greater recorded pKd? # respond with the chosen item's label
Q
(Q: 3.42, P: 3.09)
